Experiment: Approximate solubility of starting material at RT
Format: physicochemical
Conditions: organic solvent or mixture; EtOH/H2O (2:1); RT (~27 °C)
measurement-label: solubility

Problem: Dear colleague, I am looking for the recorded solubility of the following compound: O=c1[nH]cnc2c(CN3C[C@H](CO)[C@@H](O)C3)c[nH]c12 [Glutarate Type A]
Result: 22.6 to 45.2 mg/mL

----------
Assay: Approximate solubility of starting material at RT
Format: physicochemical
Conditions: organic solvent or mixture; Acetone; RT (~27 °C)
measurement-label: solubility

Problem: Entry O=c1[nH]cnc2c(CN3C[C@H](CO)[C@@H](O)C3)c[nH]c12 [Glutarate Type A] : reported solubility = ?
Result: < 2100 µg/mL

----------
Assay: Physicochemical stability (2-week, open conditions)
Details: 2-week; 25 °C/60% RH; read-out: Purity
measurement-label: remaining at 336 h
Include the unit after the number when you answer.

Problem: # input compound: O=c1[nH]cnc2c(CN3C[C@H](CO)[C@@H](O)C3)c[nH]c12 [Glutarate Type A] ; wanted: its remaining at 336 h
Result: 97.8%

----------
Assay: Approximate solubility of starting material at RT
Assay type: physicochemical
Conditions: organic solvent or mixture; n-Heptane; RT (~27 °C)
measurement-label: solubility

Problem: Look up solubility for this compound: O=c1[nH]cnc2c(CN3C[C@H](CO)[C@@H](O)C3)c[nH]c12 [Glutarate Type A]
Result: < 2000 µg/mL

----------
Assay: Approximate solubility of starting material at RT
Type: physicochemical
Conditions: organic solvent or mixture; IPA; RT (~27 °C)
measurement-label: solubility

Problem: Consider the molecule shown here: O=c1[nH]cnc2c(CN3C[C@H](CO)[C@@H](O)C3)c[nH]c12 [Glutarate Type A] What is its recorded solubility?
Result: < 1800 µg/mL

----------
Experiment: Approximate solubility of starting material at RT
Format: physicochemical
Conditions: organic solvent or mixture; EtOH/H2O (4:1); RT (~27 °C)
measurement-label: solubility

Problem: Entry O=c1[nH]cnc2c(CN3C[C@H](CO)[C@@H](O)C3)c[nH]c12 [Glutarate Type A] : reported solubility = ?
Result: 2100 to 6900 µg/mL
